Catalogue of Population Fragmented Nuclei (%) readings, one per entry.
system: HEK-293T; experiment: Multiplex assay against HEK293T; type: toxicity, cell-based; settings: human, 24 h, 10 µM, compound concentration 10 uM, replicate 2
Provide only the numeric value, understood in %.

// known answers, use as guide
>>> numeric_result("CC(C)N1CCC(C)(C)c2cc(C#Cc3ccc(C(=O)O)cc3)ccc21")
29
>>> numeric_result("CCC(=O)O[C@]1(C(=O)SCF)[C@H](C)C[C@H]2[C@@H]3C[C@H](F)C4=CC(=O)C=C[C@]4(C)[C@@]3(F)[C@@H](O)C[C@@]21C [FLUTICASONE PROPIONATE]")
11
>>> numeric_result("CCCn1c(=O)c2[nH]c(C34CC5CC(CC3C5)C4)nc2n(CCC)c1=O")
7
>>> numeric_result("N#Cc1cnc(Nc2cc(NC[C@H]3CNCCO3)c(C(F)(F)F)cn2)cn1")
12
>>> numeric_result("CCOc1cc(N2CCC(O)CC2)ccc1Nc1ncc2c(n1)N(C1CCCC1)CCC(=O)N2C")
27
>>> numeric_result("Cl.Cl.NC1(c2ccc(-c3nc4ccn5c(=O)[nH]nc5c4cc3-c3ccccc3)cc2)CCC1")
7

Q) Kindly indicate its recorded Population Fragmented Nuclei (%). Item: Cc1cn(-c2cc(NC(=O)c3ccc4c(c3)CN(c3cncnc3)C[C@@H]4C)cc(C(F)(F)F)c2)cn1
A) 12

Q) Kindly indicate its recorded Population Fragmented Nuclei (%). Item: Nc1nc2c(c(N3CCNCC3)n1)CCC1=C2[C@@H]2CCCC[C@@H]2O1
A) 3
